tested on: U87 IDH1R132H (Homo sapiens (Human), UniProt O75874, R132H)
Sequence (O75874 whole entry R132H): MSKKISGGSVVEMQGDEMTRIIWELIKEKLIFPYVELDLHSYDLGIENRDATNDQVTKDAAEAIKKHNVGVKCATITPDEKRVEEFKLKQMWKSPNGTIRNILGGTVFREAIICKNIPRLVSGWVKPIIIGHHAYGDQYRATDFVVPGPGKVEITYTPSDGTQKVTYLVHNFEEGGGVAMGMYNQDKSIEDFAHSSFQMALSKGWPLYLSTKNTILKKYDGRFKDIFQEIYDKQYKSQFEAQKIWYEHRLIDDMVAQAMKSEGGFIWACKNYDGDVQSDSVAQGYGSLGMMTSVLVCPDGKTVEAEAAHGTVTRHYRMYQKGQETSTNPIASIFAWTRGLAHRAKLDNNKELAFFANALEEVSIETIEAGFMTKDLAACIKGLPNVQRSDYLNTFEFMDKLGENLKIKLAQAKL
assay summary: U87 IDH1 R132H 2-HG cellular assay
assay setup: extracellular 2HG, 24 h treatment, IDH1 mutant-U-87 isogenic cell line
Method: The IDH1 mutant-U-87 isogenic cell line (ATCC HTB-14IG) used to test cellular inhibition is a glioma IDH1R132H mutant isogenic line derived from the parental U-87MG cell line. […] Extracellular 2HG levels are measured from cell culture media. […] The 2HG was detected by an Agilent 6460 Triple Quad mass spectrometer in negative ion mode. Multiple reaction monitoring was used to quantify 2HG using the precursor ion and product ion at m/z 147.03 and 128.9, respectively. […]
The entries below are paired with their reported pIC50.
Notebook: values listed as pIC50 are -log10 of the concentration (mol/L).

The following compounds have reported results that may help.
compound	pIC50
C=CC(=O)N1CCN(C2CCC/C=C/CN3C(=O)OCc4cnc(nc43)N[C@@H](C)c3ccc2cc3)CC1 (stereo partly drawn)	9.59
C=CC(=O)N1CCN(C2CCCC/C=C/CN3C(=O)OCc4cnc(nc43)N[C@@H](C)c3ccc2cc3)CC1 (stereo partly drawn)	9.85

Proceeding to the next compound to report its pIC50.
Entry C=CC(=O)N1CCN(C2CCCCCCN3C(=O)OCc4cnc(nc43)N[C@@H](C)c3ccc2cc3)CC1 (single isomer, unassigned) [Example 8] has what pIC50?
9.72
